Ref: paper PMC4552634

system: P. falciparum stage V gametocytes; set-up: BacTiter-Glo ATP luminescence viability of purified stage V gametocytes in 384-well plates, per cent inhibition versus DMSO; details: 48 h, 5 µM; inhibitor
Out of some 13,000 compounds screened, about 3,200 (25%) showed an effect of 50% or more. This is one part of the list.
property-measured: % Inhibition (%)
Response body: numeric value in %, unit text excluded.

(Q) Identify measured % Inhibition associated with CN(C)c1ccc(CN2CCCCC(NC(=O)c3cc(-c4ccccc4F)cs3)C2)cc1 (centres unmarked) [TCMDC-134471]
(A) -62.25

(Q) Please give the documented % Inhibition of CCc1sc(N2CCN(C)CC2)nc1C(=O)NCCc1ccc(Cl)c(Cl)c1 [TCMDC-134296]
(A) 25.24

(Q) Return reported % Inhibition. Input compound: CN(C)c1ccc(-c2csc(C(=O)NC3CCCCN(CCC(C)(C)C)C3)c2)cc1 (centres unmarked) [TCMDC-134487]
(A) -62.75

(Q) Note down % Inhibition recorded for CCc1c[nH]c2c(N3CCCCS3(=O)=O)cc(C(=O)N[C@@H](Cc3ccccc3)[C@H](O)CNCc3cccc(OC)c3)cc12 [TCMDC-134127]
(A) -6.303

(Q) Return reported % Inhibition. Input compound: Brc1ccc(Nc2nc(NCc3ccccc3)c3ccccc3n2)cc1 [TCMDC-124574]
(A) 42.06

(Q) Fill in reported % Inhibition for this entry: CN(C)c1ccc(-c2csc(C(=O)NC3CCN(Cc4ccc(C(C)(C)C)cc4)C3)c2)cc1 (centres unmarked) [TCMDC-134476]
(A) 63.77

(Q) Look up % Inhibition of COc1cccc2c(C)cc(NCc3ccc(Cl)cc3)nc12 [TCMDC-125774] and report it.
(A) -17.6

(Q) Please give measured % Inhibition of the following entry: COc1cc(CCNc2nc(NCc3cccc4ccccc34)nc(N3CCC(N)CC3)n2)ccc1O [TCMDC-133444]
(A) -7.002

(Q) Using the record for COc1cccc2c(NCc3ccccc3)nc(NCCCN3CCCCC3C)nc12 (centres unmarked) [TCMDC-137782] , state its measured % Inhibition.
(A) 79.04

(Q) In one line, give reported % Inhibition of the entry Cc1ccc(NC(=O)c2ccc3ncccc3c2)cc1OC1CCN(C(C)C)C1 (centres unmarked) [TCMDC-133739] .
(A) 24.97

(Q) For COc1ccc(OCCCON2C(N)=NC(N)=NC2(C)C)cc1 [TCMDC-131727] , write its % Inhibition.
(A) -17.37

(Q) Check the records and state % Inhibition for Cc1nc(-c2ccc3c(c2)CCN(CCC2CCC(NC(=O)c4cc5cccc(Cl)c5[nH]4)CC2)CC3)no1 (centres unmarked) [TCMDC-140071]
(A) -33.37

(Q) Give recorded % Inhibition. CN(C)c1ccc(-c2ccc(C(=O)NC3CCN(Cc4ccc(C(C)(C)C)cc4)CC3)s2)cc1 [TCMDC-134354]
(A) -40.81

(Q) Retrieve % Inhibition measured for O=C(Nc1cccc(C(F)(F)F)c1)N1CCOC(CCN2CCC3(CCc4ccccc43)CC2)(c2ccc(Cl)c(Cl)c2)C1 (centres unmarked) [TCMDC-135340] and print it.
(A) -5.677

(Q) For the compound CN(C)c1ccc(-c2csc(C(=O)NC3CCCCN(Cc4ccc(C(C)(C)C)cc4)C3)c2)cc1 (centres unmarked) [TCMDC-134470] , give its measured % Inhibition value.
(A) 63.14

(Q) Supply recorded % Inhibition for CCc1sc(-c2cc(Cl)ccc2OC)nc1C(=O)NCCN1CCCCC1 [TCMDC-133716] here.
(A) 70.94

(Q) Give me measured % Inhibition, please, for this compound: CC1CCCCN1CCCNc1nc(NCc2ccccc2)c2ccccc2n1 (centres unmarked) [TCMDC-137771]
(A) 108.4

###

Give measured % Inhibition for each item. Keep answers brief.
test system: P. falciparum stage V gametocytes; set-up: BacTiter-Glo ATP luminescence viability of purified stage V gametocytes in 384-well plates, per cent inhibition versus DMSO; settings: 48 h, 5 µM, inhibitor, % Inhibition
Among all 13,000 compounds or so, about 3,200 (25%) showed an effect of 50% or more. The list shows a part of the results.
Give the number; % is assumed, so skip it.

(Q) Provide % Inhibition, system P. falciparum stage V gametocytes, entry C=C[C@H]1CN2CC[C@H]1C[C@H]2[C@H](O)c1ccnc2ccc(OC)cc12
(A) -1.021

(Q) Consider the compound COc1ccc(-c2ccccc2)cc1NC(=S)NC1CCC(CN2CCC(c3c[nH]c4ccccc34)CC2)CC1 (centres unmarked) tested on P. falciparum stage V gametocytes; state its % Inhibition.
(A) 85.27

(Q) GET % Inhibition where system = P. falciparum stage V gametocytes and item = S=C(Nc1ccc2c(c1)OCCO2)NC1CCC(CN2CCC(c3c[nH]c4ccccc34)CC2)CC1 (centres unmarked)
(A) 28.79

(Q) Fill: % Inhibition (P. falciparum stage V gametocytes) for this compound O=C(/C=C/c1ccc(Cl)c(Cl)c1)NCCCCCN1CCC(c2c[nH]c3ccccc23)C(O)C1 (centres unmarked) [TCMDC-139694]
(A) -6.926

(Q) Send back P. falciparum stage V gametocytes % Inhibition of O=C(C=C1c2ccccc2-c2ccccc21)NC1CCC(CN2CCC(c3c[nH]c4ccccc34)CC2)CC1 (centres unmarked) only.
(A) -14.57

(Q) Give % Inhibition for O=C(C=Cc1ccc(-c2ccccc2)cc1)NC1CCC(CN2CCC(c3c[nH]c4ccccc34)CC2)CC1 (centres unmarked) tested on P. falciparum stage V gametocytes.
(A) 108

(Q) State recorded % Inhibition with P. falciparum stage V gametocytes, entry COC(=O)/C=C/c1ccc(CC(C)NCC(O)c2cccc(C(F)(F)F)c2)cc1 (centres unmarked) , no comment.
(A) -2.875

(Q) Recall the reported % Inhibition of CC1=C(C(=O)NC2CCC(CN3CCC(c4c[nH]c5ccccc45)CC3)CC2)Cc2ccccc21 (centres unmarked) on P. falciparum stage V gametocytes and write it down.
(A) -59.52

###

system: P. falciparum stage V gametocytes; set-up: BacTiter-Glo ATP luminescence viability of purified stage V gametocytes in 384-well plates, per cent inhibition versus DMSO; details: 48 h, 5 µM; inhibitor
About 3,200 (25%) of roughly 13,000 compounds showed an effect of 50% or more. The list shows a part of the results.
Note to self: values exactly at 40% are TRUE. So % Inhibition at or above 40% is TRUE, below is FALSE.

(Q) Textbook exercise: given the entry O=C(Nc1ccncc1)c1cc(C(=O)Nc2ccncc2)cc([N+](=O)[O-])c1 [TCMDC-125671] , state whether its % Inhibition is greater than or equal to 40%.
(A) TRUE

(Q) Has O=C(Nc1ccc(C(=O)Oc2ccc3ccccc3c2)cc1)N[C@@H](Cc1ccc(O)cc1)C(=O)NC1CCN(Cc2ccc(O)cc2)C1 (stereo partly shown) [TCMDC-135358] a recorded % Inhibition greater than or equal to 40%?
(A) FALSE

(Q) Please check the record CC1=C(C(=O)Nc2cc3cn[nH]c3cc2F)C(c2ccc(Cl)c(NS(C)(=O)=O)c2)CC(=O)N1 (stereo not shown) [TCMDC-136204] and state if its % Inhibition is at or above 40%.
(A) FALSE

(Q) Is % Inhibition for CN(C)C(=S)NN=Cc1cccc(O)c1O [TCMDC-137879] at or above 40%?
(A) FALSE

(Q) Answer whether % Inhibition of O=C(Nc1ccc2c(c1)CCC2)N[C@H]1CCN(Cc2ccc(OCCCN3CCCCC3)cc2)C1 [TCMDC-141790] is greater than or equal to 40%.
(A) TRUE

(Q) Threshold query (% Inhibition >= 40%) on CC1=C(C(=O)Nc2cc3cn[nH]c3cc2F)C(c2cccc(O)c2F)CC(=O)N1 (stereo not shown) [TCMDC-136296]
(A) TRUE

(Q) Exam item: decide whether the reported % Inhibition for COc1cccc(NC(=O)c2cc(C(=O)Nc3cccc(OC)c3)cc([N+](=O)[O-])c2)c1 [TCMDC-125177] is at least 40%.
(A) FALSE

(Q) Assess whether reported % Inhibition for COc1cc(OC)cc(-c2nc3c(C#N)c(OCCN(C)C)ccc3[nH]2)c1 [TCMDC-133764] sits at 40% or higher.
(A) FALSE

(Q) Entry O=C(Nc1ccc2c(c1)CCC2)N[C@H]1CCN(CCCCCNC(=O)C2CC2c2ccc(Cl)c(Cl)c2)C1 (stereo partly shown) [TCMDC-136264] : is its % Inhibition no less than 40%?
(A) FALSE

(Q) Check if % Inhibition >= 40% (inclusive). Item: CC1=C(C(=O)Nc2cc3cn[nH]c3cc2F)C(c2cccc(NS(C)(=O)=O)c2)CC(=O)N1 (stereo not shown) [TCMDC-136177]
(A) FALSE

(Q) Could you tell me if the measured % Inhibition of Cc1ccc(-c2cc(C(=O)Nc3ccc(S(=O)(=O)N4CCCCC4C)cc3)[nH]n2)c(O)c1 (stereo not shown) [TCMDC-124908] reaches 40% or more?
(A) FALSE

(Q) Does % Inhibition meet or surpass 40% for O=C(Nc1cccnc1)c1cc(C(=O)Nc2cccnc2)cc([N+](=O)[O-])c1 [TCMDC-125067] ?
(A) FALSE

(Q) Evaluate Cc1ccc(O)cc1Nc1ccnc2cc(-c3csc(CNCCN4CCOCC4)n3)ccc12 [TCMDC-138457] : % Inhibition at minimum 40%?
(A) FALSE

(Q) Does % Inhibition meet or surpass 40% for O=[N+]([O-])c1cccc(-n2nc(NCc3ccc(Cl)cc3)nc2-c2ccc(F)c(C(F)(F)F)c2)c1 [TCMDC-133541] ?
(A) TRUE

(Q) Test whether the compound O=C(Nc1ccc(-c2ccccc2)cc1)Nc1cccc(OCCN2CCCC2)c1 [TCMDC-139541] records % Inhibition of 40% or higher.
(A) FALSE

(Q) Has O=C(NC1CCC(N2CCC(Cc3ccc(F)cc3)CC2)CC1)c1cc2ccccc2[nH]1 (stereo not shown) [TCMDC-132894] a recorded % Inhibition greater than or equal to 40%?
(A) TRUE
